Tested on: A498 renal
Protocol notes: NCI tumour cell line growth inhibition, 48 h

Compound: O=S(=O)(c1ccccc1)N1CN2CN(C1)CN(S(=O)(=O)c1ccccc1)C2
TGI: > 100 µM

Compound: CCN(CC)CCN1C(=O)C2C3C(=O)CC(C)(CC3C)C2C1=O (stereo unspecified)
TGI: > 100 µM

Compound: CCOC(=O)c1nc2ccccc2nc1Nc1ccc(OC)cc1
TGI: 84.5 µM

Compound: CCCCCCCCCCCCCCCCc1c(C(=O)OC)nc(NN)[nH]c1=O
TGI: > 50 µM

Compound: CCN(CC)c1ccc(C2NC(=O)c3ccccc3N2)cc1 (stereo unspecified)
TGI: > 31.6 µM

Compound: O=C1C2c3[nH]c4ccccc4c3C3CCCCCC3C2C(=O)N1c1ccccc1 (stereo unspecified)
TGI: > 57.1 µM

Compound: CCO/C(O)=C(/C(=N)N1CCCC1)C(=O)Nc1cccc(Cl)c1
TGI: > 100 µM

Compound: O=c1c2ccccc2nc(-c2ccccc2Cl)n1-c1nnc(C(F)(F)F)s1
TGI: 5.07 µM

Compound: N=c1ccc2nc(N)nn(O)c-2c1
TGI: > 100 µM

Compound: CCCCN=C(N)c1ccc(N2CCCN(c3ccc(C(N)=NCCCC)cc3)CC2)cc1
TGI: 30.3 µM

Compound: O=Cc1c(-c2ccccc2)[nH]c2ccccc2c1=O
TGI: > 100 µM

###

Overview of reported TGI across a group of compounds:
Test system: ACHN renal
Protocol notes: NCI tumour cell line growth inhibition, 48 h
Metric name: TGI

Compound: C=C1C(=O)O[C@H]2[C@H]1CC/C(Cn1cc(-c3cccc(Cl)c3)nn1)=C\CC[C@@]1(C)O[C@@H]21
Result: 0.355 µM
--
Compound: Cc1oc(N)c(S(=O)(=O)c2cc3ccccc3n(O)c2=N)c1C
Result: > 100 µM
--
Compound: COc1cccc(/C=N/[N-]C(N)=O)c1[O-].[Ni+2].[OH3+]
Result: 2.07 µM
--
Compound: CCOC(=O)C(NO)C(Sc1ccccc1)c1ccc(OC)cc1 (stereo unspecified)
Result: > 100 µM
--
Compound: COc1cc(/C=C/C(=O)/C=C/c2cc3ccc(Cl)cc3n(Cc3ccccc3)c2=O)ccc1O
Result: 2.62 µM
--
Compound: CCN(CC)CCN1C(=O)C2C3C(=O)CC(C)(CC3C)C2C1=O (stereo unspecified)
Result: > 100 µM
--
Compound: COC1[C@H](NC(=O)OC(C)(C)C)C(=O)N1Cc1ccccc1 (stereo partly specified)
Result: > 100 µM
--
Compound: N#Cc1ccccc1C#C/C=C\C#CC#C/C=C\C#Cc1ccccc1C#N
Result: 37.8 µM
--
Compound: CS(C)(=O)=Nn1c(=O)n2n(c1=O)C1c3ccccc3C2c2ccccc21
Result: > 100 µM
--
Compound: Clc1ccc2ncc(-c3cccc(NC4CNC4)n3)n2c1
Result: > 100 µM
--
Compound: O=C(CO[N+](=O)[O-])OC/C=C/c1ccccc1
Result: > 100 µM
--
Compound: CC(=O)Nc1ccc(/C=C2\N=C(c3ccccc3)OC2=O)cc1
Result: > 100 µM
--
Compound: CC1(C)S[C@H](CN)N[C@H]1C(=O)OC(c1ccccc1)c1ccccc1
Result: > 100 µM
--
Compound: CCOc1ccc(OCC)c([P+](c2ccccc2)(c2ccccc2)c2ccccc2)c1
Result: 10.5 µM
--
Compound: COC(=O)n1c(C)c(C=O)c2ccc(OC)cc21
Result: > 100 µM
--
Compound: CCOC(=O)C(/C(=N\NC(=O)OC)C(=O)Nc1cc(OC)ccc1OC)c1cnc2ccccc2n1 (stereo unspecified)
Result: > 100 µM
--
Compound: CCCCCCCCCCCCCCCCc1c(C(=O)OC)nc(NN)[nH]c1=O
Result: > 50 µM
--
Compound: CCCCCCCCCC(CCCC(O)CC(=O)O)OC1OC(COC2OC(C)C(OC(C)=O)C(O)C2O)C(O)C(O)C1OC1OC(CO)C(O)C(O)C1OC1OC(C)C(OC(=O)CC(C)C)C(O)C1O (stereo unspecified)
Result: > 35 µM
--
Compound: CC(=O)OCC1OC(n2c(N)c(C#N)c(C)c(C#N)c2=S)C(OC(C)=O)C(OC(C)=O)C1OC(C)=O (stereo unspecified)
Result: > 100 µM
--
Compound: COC1CC(C)([N+](=O)[O-])C(O)C(C)O1 (stereo unspecified)
Result: > 100 µM
--
Compound: CC1C(=O)c2cc3c(cc2CCN(C)Cc2c1ccc1c2OCO1)OCO3 (stereo unspecified)
Result: > 75 µg/mL
--
Compound: O=C(Nc1cccc(-n2cc(-c3ccncc3)c(-c3ccc(O)c(Cl)c3)n2)c1)c1cc(C(F)(F)F)cc(C(F)(F)F)c1
Result: > 50 µM
--
Compound: Cc1cccc(/C=N\NC(=S)N2CCCCC2)n1
Result: 0.863 µM
--
Compound: C[N+]1(CCC(=O)c2ccccc2)CCC2CCC(C2)C1 (stereo unspecified)
Result: > 100 µM
--
Compound: Cc1cc(S(=O)(=O)Nc2n[nH]c(Nc3ccc4ccccc4c3)n2)c(S)cc1Cl
Result: > 100 µM
--
Compound: O/C(=C\c1nc2ccccc2nc1/C=C(\O)c1ccc(F)cc1)c1ccc(F)cc1
Result: > 100 µM
--
Compound: CN(C)C(=O)NC(=S)N(C)C
Result: > 100 µM
--
Compound: NC1=NC(=O)/C(=C/c2ccc3ncccc3c2)S1
Result: > 25 µM
--
Compound: CC1(C(=O)O)C[C@](C)(C(=O)OCc2ccccc2)C[C@](C)(C(=O)OCc2ccccc2)C1 (stereo partly specified)
Result: 57.5 µM
--
Compound: CCN(CC)c1ccc(C2NC(=O)c3ccccc3N2)cc1 (stereo unspecified)
Result: > 100 µM
--
Compound: OCCCSCCO
Result: > 100 µM
--
Compound: O=C(Cc1ccc([N+](=O)[O-])c([N+](=O)[O-])c1CC(=O)C(=O)Nc1cc(Cl)ccc1Cl)C(=O)Nc1cc(Cl)ccc1Cl
Result: > 100 µM
--
Compound: C[C@@H](NC(=O)c1ncnc(N)c1Cl)c1ncc(C(=O)Nc2cc(C(F)(F)F)c(Cl)cn2)s1
Result: > 100 µM
--
Compound: CC(=O)Nc1ccc(C(=O)NN2C(=O)C(Cl)C2c2cccc([N+](=O)[O-])c2)cc1 (stereo unspecified)
Result: > 100 µM
--
Compound: C/C(=N\NC(=S)NC(CCC(=O)O)C(=O)O)c1cnccn1 (stereo unspecified)
Result: > 100 µM
--
Compound: CN=C(N)N=Nc1c(O)[nH]c2ccccc12
Result: > 100 µM
